Data origin: ChEMBL document CHEMBL1125790

Record: pIC50 reported on Aldo-keto reductase family 1 member B1 (Rattus norvegicus, UniProt P07943).
pIC50: −log10 of the molar value.
Property: pIC50

A. O=C1CC2(c3ccccc3-c3ccc(Cl)cc32)S(=O)(=O)N1 (stereo not given)
B. O=C1CC2(c3cc(F)ccc3-c3ccc(F)cc32)S(=O)(=O)N1
Query string: Task for the reader: decide whether A or B has the larger pIC50. Provide the label of your selected option as the answer.
Result string: B

P. O=C1NC(=O)C2(N1)c1cc(F)ccc1-c1ccc(F)cc12
Q. O=C1CC2(c3ccccc3-c3ccc(F)cc32)S(=O)(=O)N1 (stereo not given)
Query string: Task for the reader: decide whether P or Q has the larger pIC50. Provide the label of your selected option as the answer.
Result string: P
(P: 8.05, Q: 6.77)
